assay: Toxicity liver stage against HepG2, at 10uM; type: cell-based; set-up: test concentration 10 uM, cell line HepG2-A16-CD81EGFP; settings: human, HepG2-A16-CD81EGFP cells; read-out: INHIBITION
propertyLabel: cytotoxicity at 10 µM (%)
Write down the numeric answer in % and omit the unit.

[
  {
    "compound": "COCCC(=O)NCc1ccc(-c2ncncc2C(=O)N(C)C)cc1",
    "unitText": "%",
    "number": 4.45
  }
]

Query: cytotoxicity at 10 µM for Cc1c(CN2CCCC(c3[nH]ncc3S(C)(=O)=O)C2)cnn1C (stereo unspecified) ?
Result: 4.69

Query: I would be grateful if you could share the reported cytotoxicity at 10 µM for CC(=O)N(Cc1ncc(C)o1)C1CCN(Cc2cccc(C#N)c2)C1 (stereo unspecified) .
Result: 1.63

Query: Item `CN(Cc1cccnc1)Cc1cncc2c1CCN(Cc1ccoc1)C2` has what recorded cytotoxicity at 10 µM?
Result: -100

Query: Please give the measured cytotoxicity at 10 µM for this compound: `CN(CCO)Cc1nnc(C2CCN(C(=O)c3cccnc3)CC2)n1C`
Result: 11.4

----------
assay: Toxicity liver stage against HepG2, at 10uM; assay type: cell-based; design: test concentration 10 uM, cell line HepG2-A16-CD81EGFP; details: human, HepG2-A16-CD81EGFP cells; read-out: INHIBITION
Entries annotated with measured cytotoxicity at 10 µM
The reply should contain only the number, in %.

[
  {
    "compound": "CS(=O)(=O)NC(=O)c1ccn(-c2ccccc2Cl)n1",
    "cytotoxicity at 10 µM / %": -4.27
  }
]

Query: cytotoxicity at 10 µM for `O=S1(=O)CCN(CCCc2ccc(Cl)cc2)CC1` ?
Result: 1.91

Query: Suppose we examine the compound Cc1cccc(CN2CCCC(O)(CNCCN3CCCCC3)C2=O)c1 (centres undefined) ; what cytotoxicity at 10 µM value has been reported?
Result: 1.02

Query: Given CN(C)CCN1CCC2(CCCN(Cc3cccn3C)C2)C1=O (centres undefined) , state its recorded cytotoxicity at 10 µM.
Result: -114

----------
experiment: Toxicity liver stage against HepG2, at 10uM; assay type: cell-based; set-up: test concentration 10 uM, cell line HepG2-A16-CD81EGFP; details: human, HepG2-A16-CD81EGFP cells; read-out: INHIBITION
# cytotoxicity at 10 µM annotations
Value expressed in %; do not type the unit.

Query: Form field: reported cytotoxicity at 10 µM of c1cnc(N2CCOCC3(CNCCO3)C2)nc1 (stereo unspecified)
Result: -112

Query: Suppose we examine the molecule `CC(C)OCCCNC(=O)CN1C=Nc2ccccc2S1(=O)=O` ; what cytotoxicity at 10 µM value has been reported?
Result: -5.44

Query: For the molecule shown here, `Cc1cccc(-c2nc(C)nn2CC(=O)NC2CCCC2)c1` , give the reported cytotoxicity at 10 µM.
Result: -12.5

Query: Look at this molecule and give its reported cytotoxicity at 10 µM. `O=C(CC1CC1)N1CC[C@H]2[C@@H]1CCC(=O)N2c1cccnc1`
Result: 3.06

Query: Entry `CC(C)(C)C(=O)N1C[C@@H]2COC[C@]2(c2nnc(C3CC3)o2)C1` : reported cytotoxicity at 10 µM = ?
Result: -2.47

Query: Would you mind telling me what cytotoxicity at 10 µM value was observed for CCc1noc(C)c1C(=O)N1CCCC(n2nc(C)nc2C)C1 (stereo unspecified) ?
Result: -7.01

Query: State the recorded cytotoxicity at 10 µM for this entry: `COc1ccc(N2CCC(NCc3csc(C(C)C)n3)CC2)cc1`
Result: -15.9

Query: cytotoxicity at 10 µM; subject: `COc1ccc(-c2nc(CN3CCOCS3(=O)=O)c(C)o2)cc1`
Result: -0.0714
